Target: T1, hFc tagged human LAG3 ECD recombinant protein (human, UniProt P18627 23-450)
T1 construct: range 23-450; also called biotin labelled hFc tagged human LAG3 ECD; not shown: human IgG Fc tag
T1 sequence (looked up): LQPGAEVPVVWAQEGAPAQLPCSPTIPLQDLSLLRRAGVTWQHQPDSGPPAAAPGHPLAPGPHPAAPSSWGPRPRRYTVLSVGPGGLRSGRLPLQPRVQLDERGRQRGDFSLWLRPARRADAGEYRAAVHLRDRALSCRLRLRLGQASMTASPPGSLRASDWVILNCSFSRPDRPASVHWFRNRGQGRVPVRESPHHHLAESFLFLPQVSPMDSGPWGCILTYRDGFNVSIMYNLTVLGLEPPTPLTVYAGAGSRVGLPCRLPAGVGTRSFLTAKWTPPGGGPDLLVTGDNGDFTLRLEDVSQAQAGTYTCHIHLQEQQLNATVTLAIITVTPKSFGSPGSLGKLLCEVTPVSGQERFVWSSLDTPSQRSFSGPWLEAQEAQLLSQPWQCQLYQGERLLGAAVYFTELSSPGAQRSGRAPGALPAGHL
Experiment: competitive ELISA format II: biotin hFc-LAG3 ECD binding to coated His-FGL1
Property: TOP blocking (%)
Numbers only, in %.

Below, 4 binders whose answers are already recorded.
binder="023c (antibody, human IgG4, V domains shown, human IgG4 S228P / kappa chimeric antibody; also called chimeric antibody 023; ES005-023c; not shown: human kappa light chain constant region (pcDNA3.4-hIgGk vector)) VH: QIQLVQSGPVLKKPGETVKISCKASGYTFTESPMNWVKQAPGRGFKWMGMIYTDTGEPTYAEEFKGRFAFSLETSASTAYLQINNLKSEDTATYFCVSDYGSILYWYFDVWGTGTTVTVSS VL: DIVMTQSHKFMSTSVGDRVSITCKASQDVSTAVAWYQQTPGQSPKLLIYSASYRYTGVPDRFTGSGSGTDFTFTISSVQAEDLAVYYCQQHYNSPPTFGAGTKLELK" property="TOP blocking (%)" recorded_value=86.8
binder="047c (antibody, human IgG4, V domains shown, human IgG4 S228P / kappa chimeric antibody; also called chimeric antibody 047; not shown: human kappa light chain constant region (pcDNA3.4-hIgGk vector)) VH: QVQLQQSGAELARPGASVKLSCKASGYSFTSYGVNWVKQRTGQGLEWIGEIYPRSGNTYYNERFGDKATLTADKSSSTAYMEIRSLTSEDSAVYFCARGGTYDGYYYAMDYWGQGTSVTVSS VL: DIVLTQSPASLAVSLGQRATISCRASESVDNFGSSFMHWYQQKPGQAPKLLIYRASNLESGIPARFSGSGSRTDFTLTINPVETDDVATYYCQQVNKDPRTFGGGTKLEIK" property="TOP blocking (%)" recorded_value=12.6
binder="029c (antibody, human IgG4, V domains shown, human IgG4 S228P / kappa chimeric antibody; also called chimeric antibody 029; not shown: human kappa light chain constant region (pcDNA3.4-hIgGk vector)) VH: DVKLVESGEDLVKPGGSLKLSCAASGFTFSSYAMSWVRQTPEKRLEWVAYVTSGGDYIYYADTVKGRFTISRDDVRNTLYLQMSSLKSEDTAMYYCTRVAYDYEWYFDVWGTGAPVTVSS VL: DIVMTQSHKFMSTSVGDRVSITCKASQDVTTAVAWYQQKPGQSPKLLIYSASYRYTGVSDRFTGSGSGTDFTFTISSVQAEDLALYYCQQHDSSPWTFGGGTKLEIK" property="TOP blocking (%)" recorded_value=84.5
binder="027c (antibody, human IgG4, V domains shown, human IgG4 S228P / kappa chimeric antibody; also called chimeric antibody 027; not shown: human kappa light chain constant region (pcDNA3.4-hIgGk vector)) VH: EVKILQSGGGLVQPGGSLKLSCAASGIDFSRYWMSWVRRTPGKGLEWIGEINPDSSTINYAPSLKDKFIISRDNAKNTLYLQMSKVRSEDTALYYCARLGIIPTYHYGSSGYYYAMDYWGQGTSVTVSS VL: DVLMTQTPLSLPVSLGDRASISCRSSQTIVHGNGHTSLEWYLQKPGQSPQLLIYKVSNRFSGVPDRFSASGSGTDFTLTISRVEAEDLGVYYCFQVSHVPYTFGGGTKLEIK" property="TOP blocking (%)" recorded_value=78.3

Next binder, please.
May I ask what TOP blocking (%) has been recorded for 021c (antibody, human IgG4, V domains shown, human IgG4 S228P / kappa chimeric antibody; also called chimeric antibody 021; not shown: human kappa light chain constant region (pcDNA3.4-hIgGk vector)) VH: DIQLQESGPGLVKPSQSLSLTCSVTGYSITSGYYWNWIRQFPGNKLEWMGDISYDGGNNYNPSLKNRISITRDTSKNQFFLKLNSVTTEDTATYYCARDITLTGAMDYWGQGTSVTVSS VL: DIVLTQSPASLAVSLGQRATISCRASESVDNYGISFMHWYQQRPGQPPKLLIYRASNLESGIPARFSGSGSRTDFTLTINPVETDDVATYYCQQSNKDPYTFGGGTKLEIK ?
82
